- EXPERIMENT_DESCRIPTION: Stability of peptides in simulated intestinal fluid (pH 7.5)
- Format: in vitro ADME
- CONDITION: simulated intestinal fluid, 24 h, 2 μM, pH 7.5
Where a SMILES comes first, the peptide text is derived from it. [ ]: non-standard residue; d: D form. ξ: configuration not given here. ξαMePhe(2,6-F2) = CC(N)(Cc1c(F)cccc1F)C(=O)O; ξαMePhe(2-F) = CC(N)(Cc1ccccc1F)C(=O)O; hArg = N=C(N)NCCCC[C@H](N)C(=O)O; Nle = CCCC[C@H](N)C(=O)O; ξαMeP = CC1(C(=O)O)CCCN1; Ac5c = NC1(C(=O)O)CCCC1; Ac3c = NC1(C(=O)O)CC1; Aib = CC(C)(N)C(=O)O
RESULT_TYPE: % degradation of peptides in 24 h when incubated with simulated intestinal fluid (%)
Numeric answer only, unit % assumed.

{"COMPOUND": "CCCC[C@H](NC(=O)C(C)(Cc1ccccc1F)NC(=O)[C@H](CCC(N)=O)NC(=O)[C@@H](NC(=O)[C@H](CCC(=O)O)NC(=O)C(C)(C)NC(=O)[C@@H](NC(=O)C1(N)CC1)C(C)C)[C@@H](C)CC)C(=O)N[C@@H](Cc1c[nH]cn1)C(=O)N[C@@H](CCC(N)=O)C(=O)N[C@@H](CCCCNC(=N)N)C(=O)NC(C)(C)C(=O)N[C@@H](CCCCN)C(=O)NC(C)(Cc1c(F)cccc1F)C(N)=O (stereo partly shown) [Seq. ID. 95] (H-[Ac3c]V[Aib]EIQ[ξαMePhe(2-F)][Nle]HQ[hArg][Aib]K[ξαMePhe(2,6-F2)]-NH2)", "UNIT_SPEC": "%", "RECORDED_VALUE": 100}

Ask: Query (compound): CCCC[C@H](NC(=O)C(C)(Cc1ccccc1F)NC(=O)[C@H](CCC(N)=O)NC(=O)[C@@H](NC(=O)[C@H](CCC(=O)O)NC(=O)C1(NC(=O)[C@@H](NC(=O)C(C)(C)N)C(C)C)CCCC1)[C@@H](C)CC)C(=O)N[C@@H](Cc1c[nH]cn1)C(=O)N[C@@H](CCC(N)=O)C(=O)N[C@@H](CCCCNC(=N)N)C(=O)N1CCCC1(C)C(=O)N[C@@H](CCCCN)C(=O)NC(C)(Cc1ccccc1F)C(N)=O (stereo partly shown) [Seq. ID. 62] (H-[Aib]V[Ac5c]EIQ[ξαMePhe(2-F)][Nle]HQ[hArg][ξαMeP]K[ξαMePhe(2-F)]-NH2) ; field requested: % degradation of peptides in 24 h when incubated with simulated intestinal fluid
Result: 00

Ask: Query (compound): CCCC[C@H](NC(=O)C(C)(Cc1ccccc1F)NC(=O)[C@H](CCC(N)=O)NC(=O)[C@@H](NC(=O)[C@H](CCC(=O)O)NC(=O)C(C)(C)NC(=O)[C@@H](NC(=O)C1(N)CCCC1)C(C)C)[C@@H](C)CC)C(=O)N[C@@H](Cc1c[nH]cn1)C(=O)N[C@@H](CCC(N)=O)C(=O)NC(C)(C)C(=O)NC(C)(C)C(=O)NC(C)(Cc1c(F)cccc1F)C(=O)NC(C)(Cc1c(F)cccc1F)C(N)=O (stereo partly shown) [Seq. ID. 580] (H-[Ac5c]V[Aib]EIQ[ξαMePhe(2-F)][Nle]HQ[Aib][Aib][ξαMePhe(2,6-F2)][ξαMePhe(2,6-F2)]-NH2) ; field requested: % degradation of peptides in 24 h when incubated with simulated intestinal fluid
Result: 46

Ask: Query (compound): CCCC[C@H](NC(=O)C(C)(Cc1ccccc1F)NC(=O)[C@H](CCC(N)=O)NC(=O)[C@@H](NC(=O)[C@H](CCC(=O)O)NC(=O)C(C)(C)NC(=O)[C@@H](NC(=O)C(C)(C)N)C(C)C)[C@@H](C)CC)C(=O)N[C@@H](Cc1c[nH]cn1)C(=O)N[C@@H](CCC(N)=O)C(=O)N[C@@H](CCCCNC(=N)N)C(=O)N[C@@H](C)C(=O)NC(C)(C)C(=O)NC(C)(Cc1ccccc1F)C(N)=O (stereo partly shown) [Seq. ID. 161] (H-[Aib]V[Aib]EIQ[ξαMePhe(2-F)][Nle]HQ[hArg]A[Aib][ξαMePhe(2-F)]-NH2) ; field requested: % degradation of peptides in 24 h when incubated with simulated intestinal fluid
Result: 43

Data credit: patent US8383581B2
